# TARGET SYSTEM: T1, ZH 05 as periplasmic ABD fusion AQHDEALE-[ZH 05]-VDYV-[ABD]-YVPG (Streptococcus strain G148, UniProt P19909 254-299, limits assumed)
# T1 construct: domain: GA3
# ASSAY COMMENT: SPR (Biacore 2000) screening; periplasmic Z-ABD captured on anti-ABD antibody, 200 nM boxA(disulfide); 1:1 model

[
  {
    "BINDER": "boxA(disulfide), disulfide linked form of A-box domain of HMGB1 (other, disulfide C23-C45, also called b-boxA(disulfide)) MGKGDPKKPRGKMSSYAFFVQTCREEHKKKHPDASVNFSEFSKKCSERWKTMSAKEKGKFEDMAKADKARYEREMKTYIPPKGETKKKF",
    "Kd": "~54 nM"
  }
]
